target: mushroom tyrosinase; assay: Enzyme kinetic analysis with tyrosinase (Lineweaver-Burk and Dixon plots); conditions: L-DOPA as substrate; Dixon plot
observable: pKi
Scale explanation: pKi corresponds to minus log10 of a concentration expressed in moles per litre.

Which pKi value is on record for O=C1/C(=C/c2ccc(O)cc2O)Cc2ccccc21 [BID3] ?
5.62

---

Target: mushroom tyrosinase
Assay: Mushroom tyrosinase inhibitory assay (L-tyrosine or L-DOPA as substrate)
Format: biochemical, Agaricus bisporus
Settings: L-DOPA substrate; mean ± SEM of triplicate experiments; read-out: IC50 (μM), L-DOPA as substrate (diphenolase activity)
Experimental: Tyrosinase inhibitory activity assay was performed using mushroom tyrosinase as described previously, with minor modification, [36]. […] […] The reaction mixtures were incubated at 37 °C for 30 min. After that, the amount of dopachrome produced in each well was measured by spectrophotometric analysis at 492 nm (OD492) using a microplate reader.
observable: IC50 (µM)
Please give a number only; it is taken to be in µM.

Write down the reported IC50 of O=C1/C(=C/c2cc(Br)c(O)c(Br)c2)Cc2ccccc21 [BID13] , test system: mushroom tyrosinase.
75.3

Value wanted: IC50 (mushroom tyrosinase) of entry O=C1/C(=C/c2ccc(O)cc2)Cc2ccccc21 [BID1]
130
